Test system: U87 cells
Assay: U87 cell assay (antiproliferative/cytotoxicity)
Format: cell-based
Conditions: U-87MG human glioblastoma cells
measurement_name: pEC50
pEC50 field: float, defined as -log10 of concentration (mol/L).

Below, each entry is followed by its recorded pEC50 result.
Cc1ccccc1S(=O)(=O)Nc1cc(C#Cc2c(C)ncnc2N2CCOCC2)cnc1C : 6.33
Cc1ncc(C#Cc2c(C)ncnc2N(C)C(C)C)cc1NS(=O)(=O)c1ccc(F)cc1F : 5.78
Cc1ncnc(N2CCOCC2)c1C#Cc1cncc(NS(=O)(=O)c2ccc(F)cc2F)c1 : 6.28
Cc1ncc(C#Cc2c(C)ncnc2N2CCOCC2)cc1NS(=O)(=O)c1cnn(C)c1 : 6.50
Cc1ncc(C#Cc2c(C)ncnc2N2CCOCC2)cc1NS(=O)(=O)c1ccc(F)cc1F : 6.54
CC(=O)N1CCN(c2ncnc(C)c2C#Cc2cnc(C)c(NS(=O)(=O)c3ccccc3)c2)CC1 : 6.20
Cc1ncc(C#Cc2c(C)ncnc2N2CCOCC2)cc1NS(C)(=O)=O : 6.02
COc1ncc(C#Cc2c(C)ncnc2N2CCOCC2)cc1NS(C)(=O)=O : 6.29

Quick note, pEC50 for Cc1ncc(C#Cc2c(C)ncnc2N2CCOCC2)cc1NS(=O)(=O)c1ccnn1C landed at 6.11

Quick note, pEC50 for Cc1ncc(C#Cc2c(C)ncnc2N2CCN(C3CC3)CC2)cc1NS(=O)(=O)c1ccccc1 landed at 4.60

Quick note, pEC50 for Cc1ncc(C#Cc2c(C)ncnc2N2CCOCC2)cc1NS(=O)(=O)c1ccoc1 landed at 6.54

Quick note, pEC50 for CCc1ncnc(N2CCC(O)CC2)c1C#Cc1cnc(C)c(NS(=O)(=O)c2ccc(F)cc2)c1 landed at 6.27

Quick note, pEC50 for Cc1ncc(C#Cc2c(C)ncnc2N2CCOCC2)cc1NS(=O)(=O)c1ccccc1F landed at 6.47

Quick note, pEC50 for Cc1ncc(C#Cc2c(C)ncnc2N2CCOCC2)cc1NS(=O)(=O)c1cn(C)c(C)n1 landed at 5.70

Quick note, pEC50 for COc1ncc(C#Cc2c(C)ncnc2N2CCOCC2)cc1NS(=O)(=O)c1ccc(F)cc1F landed at 7.08

Quick note, pEC50 for Cc1ncnc(N2CCOCC2)c1C#Cc1cncc(NS(=O)(=O)c2cnn(C)c2)c1 landed at 5.76

Quick note, pEC50 for Cc1ncc(C#Cc2c(C)ncnc2N2CCOCC2)cc1NS(=O)(=O)c1cccs1 landed at 6.90

---

// reported pEC50 per item
Test system: MB453 cells
Experiment: alamarBlue MB453 cell assay (antiproliferative/cytotoxicity)
Format: cell-based
Conditions: Homo sapiens; MDA MB 453 breast cancer cell line
pEC50 field: float, defined as -log10 of concentration (mol/L).

Quick note, pEC50 for CC(=O)N1CCN(c2ncnc(C)c2C#Cc2cnc(C)c(NS(=O)(=O)c3ccc(F)cc3F)c2)CC1 landed at 6.28

Quick note, pEC50 for Cc1ncc(C#Cc2c(C)ncnc2N2CCOCC2)cc1NS(=O)(=O)C1CCCCC1 landed at 5.75

---

Test system: MB453 cells
Experiment: alamarBlue MB453 cell assay (antiproliferative/cytotoxicity)
Format: cell-based
Conditions: Homo sapiens; MDA MB 453 breast cancer cell line
Description: The H460, MB453, U87, MCF7 and BT474 alamarBlue cell assays provide EC50 values indicative of the antiproliferative or cytotoxic effects of the compounds to respectively the H460 (human non small cell line cancer), MB-453 (breast cancer cell line), U87 (glioblastoma cell line), MCF7 (breast cancer cell line) and BT474 (breast cancer cell line). […] 3. […] Measure fluorescence by exciting at 530-560 nm and measuring emission at 590 nm. […]
// reported EC50 per item
Answer in nM, number only, no unit symbol.

COc1ncc(C#Cc2c(C)ncnc2N2CCOCC2)cc1NS(=O)(=O)c1ccccc1 : 47
Cc1ncc(C#Cc2c(C)ncnc2N2CCCCC2)cc1NS(=O)(=O)c1ccccc1 : 1330
Cc1ncc(C#Cc2c(C)ncnc2N2CCOCC2)cc1NS(=O)(=O)c1ccccc1F : 168
CCc1ncnc(N2CCN(S(C)(=O)=O)CC2)c1C#Cc1cnc(C)c(NS(=O)(=O)c2ccc(F)cc2)c1 : 54
Cc1ccccc1S(=O)(=O)Nc1cc(C#Cc2c(C)ncnc2N2CCOCC2)cnc1C : 298
Cc1cc(S(=O)(=O)Nc2cc(C#Cc3c(C)ncnc3N3CCOCC3)cnc2C)c(C)s1 : 533
Cc1ncc(C#Cc2c(C)ncnc2N2CCOCC2)cc1NS(=O)(=O)c1ccccc1C(F)(F)F : 63

Quick note, EC50 for COc1ncc(C#Cc2c(C)ncnc2N2CCOCC2)cc1NS(=O)(=O)c1ccc(Cl)cc1 landed at 49
